Reference source: the supplement of paper PMC13380429

system: Vero E6; test: cell viability relative to DMSO; higher = less toxic; conditions: 72 h; 100 nM
Measured Endpoint: cell viability (%)
Form entry: value (%) — number only.

Give the measured cell viability of On1ncc(C2CCNCC2)c1-c1cccc(-c2ccccc2)c1 .
92

// query: O=C1N(c2ccccc2)c2ccccc2C1(Cc1ccncc1)Cc1ccncc1
106

Can you handle CC(=O)NCC(=O)N1[C@@H]2CC[C@H]1c1ccc(Nc3ncc(C(F)(F)F)c(NC4CCC4)n3)cc12 next?
96.6

Next compound: C[C@]12CCC(=O)C=C1CC[C@@H]1[C@@H]2CC[C@@]2(C)[C@H]1CC[C@]2(O)C(=O)CO
105

Consider next the compound CC1=C(C(=O)OC2CCCCC2)C(c2ccc([N+](=O)[O-])cc2)C2=C(CC(C)(C)CC2=O)N1 (configuration not stated) in the same way.
96.6

Another compound to look at: CCOc1ccc2ccccc2c1C(=O)N[C@@H]1C(=O)N2[C@@H]1SC(C)(C)[C@@H]2C(=O)O
94.2

Same lookup for CC(C)[C@@H](CS(=O)(=O)C(C)C)N1C(=O)[C@@](C)(CC(=O)O)C[C@H](c2cccc(Cl)c2)[C@H]1c1ccc(Cl)cc1 , please.
98.4

Entry to check: CC1(C)O[C@@H]2C[C@H]3[C@@H]4CCC5=CC(=O)C=C[C@]5(C)[C@@]4(F)[C@@H](O)C[C@]3(C)[C@]2(C(=O)CO)O1 [TRIAMCINOLONE ACETONIDE]
95.3

For O=c1c(O)c(-c2cc(O)c(O)c(O)c2)oc2cc(O)cc(O)c12 then?
95.4

Then what about the compound NC(N)=Nc1nc(CSCC/C(N)=N/S(N)(=O)=O)cs1 ?
89.2

Please do the same for Nc1nc(O)c2[nH]nnc2n1 as well.
105

What do you have for O=C1CC2(CCCC2)CC(=O)N1CCCCNC[C@H]1COc2ccccc2O1 (racemic) ?
101

What about CC(CNS(=O)(=O)C(C)C)c1ccc(-c2ccc(C#N)cc2)cc1 (configuration not stated) ?
106

OC[C@H]1NCC[C@@H](O)[C@@H]1O , same question.
93.1

Param item: CCn1nc(C)c2c1C(c1ccccc1)=NCC(=O)N2
104

What do you have for Oc1ccc([C@@H]2Oc3ccc(O)cc3[C@@H]3CCC[C@@H]32)cc1 ?
92.5

Next: CO[C@@H]1COCC[C@@H]1N[C@@H]1CC[C@@](C(=O)N2CCc3ncc(C(F)(F)F)cc3C2)(C(C)C)C1
111

Continue with CC/C(=C(/c1ccc(OCCN(C)C)cc1)c1cccc(O)c1)c1ccccc1
93.7

For Oc1ccc2c3c1O[C@H]1c4oc5ccccc5c4C[C@@]4(O)[C@@H](C2)N(CC2CC2)CC[C@]314 then?
93.3

Also need Cn1c(COc2ccc(CC3SC(=O)NC3=O)cc2)nc2ccccc2c1=O (configuration not stated) , thanks.
88.6

Repeat for the following compound: O=C1C(O)=C(O)C(=O)C(O)=C1O
97.6

Next compound: COc1ccc(C(=O)Nc2sc3c(c2C(N)=O)CCCC3)cc1OC
96

Same question for CCCCNC(=O)[C@@H]1Cc2ccccc2N1C(=O)[C@@H](N)CC [butabindide] please.
98.9

Nc1ccn([C@@H]2CS[C@H](CO)O2)c(=O)n1 , same question.
97.4

How about this compound: Cc1ccc(-c2cc(C(F)(F)F)nn2-c2ccc(S(N)(=O)=O)cc2)cc1
102

Now consider OCC[N+]12CN3CN(CN(C3)C1)C2 and answer again.
106

Same again, this time with COc1ccc(C(=O)c2ccccc2O)c(O)c1
92.4

====

tested on: HepG2; experiment: cell viability relative to DMSO; higher = less toxic; details: 72 h; 1 nM
I'd appreciate it if you could supply cell viability values for the items below.
Response body: numeric value in %, unit text excluded.

Test system HepG2; read-out cell viability; what value for O=C(O)C1=CCNCC1 [isoguvacine] ?
91

And C[N+](C)(C)CCCCCC[N+](C)(C)C [hexamethonium] ?
109

Input CCCC(=O)O[C@]1(C(=O)CCl)[C@@H](C)C[C@H]2[C@@H]3CCC4=CC(=O)C=C[C@]4(C)[C@@]3(F)C(=O)C[C@@]21C [clobetasone-butyrate]
96.2

Then CC[C@@H](CO)NC(=O)[C@@H]1C=C2c3cccc4c3c(cn4C)C[C@H]2N(C)C1 [methysergide] ?
94.8

Now consider Nc1ccccc1S(N)(=O)=O [2-aminobenzenesulfonamide] .
99

Same for O=C(NCCCN1CCC2(CC1)OCc1ccccc12)[C@H]1CCCN1Cc1ccccc1 [BAN-ORL-24]
97.5

What about CCOC(=O)[C@H](CCc1ccccc1)N[C@@H](C)C(=O)N1CCC[C@H]1C(=O)O [enalapril] ?
103

====

Would you mind telling me the reported cell viability of each entry?
test system: Calu-3; assay: cell viability relative to DMSO; higher = less toxic; conditions: 72 h; 100 nM
API: value field is a number in %; no unit string.

Endpoint output: cell viability of CCCc1c(-c2ccc(O)cc2)nn(-c2ccc(O)cc2)c1-c1ccc(O)cc1 . Value?
97.4

// repeat for CN(Cc1ccccc1)C(=O)[C@H](Cc1ccc2ccccc2c1)NC(=O)[C@@H]1C[C@@H](O)CN1C(=O)c1cn(C)c2ccccc12 and report
90.6

Likewise for O=C(O)Cc1ccc(OCCNC[C@H](O)c2ccccc2)cc1 ?
105

For O=[N+]([O-])c1cccc2cn[nH]c12 then?
99.4

Please answer likewise for CC[C@H]1[C@@H](O)[C@@H]2[C@H](CC[C@]3(C)[C@@H]([C@H](C)CCC(=O)O)CC[C@@H]23)[C@@]2(C)CC[C@@H](O)C[C@@H]12
106

Again, but for Fc1cccc(/C=N/N=C/c2cccc(F)c2)c1
98.8

// query: OCCC#Cc1nc(-c2ccc(F)cc2)c(-c2ccncc2)n1CCCc1ccccc1
83.6

Repeat with Oc1ccc2c3c1O[C@H]1c4[nH]c5ccccc5c4C[C@@]4(O)[C@@H](C2)N(CC2CC2)CC[C@]314
103

Same thing, different molecule: O=c1[nH]c(CCl)nc2sc3c(c12)CCCC3
97.9

Also need CCC1(c2ccc(N)cc2)CCC(=O)NC1=O (stereo unspecified) [aminoglutethimide] , thanks.
103

Quick one: O=C(COc1cccc2c(=O)[nH]ccc12)c1ccccc1
92.9

====

system: Vero E6; test: cell viability relative to DMSO; higher = less toxic; conditions: 72 h; 1000 nM
Measured Endpoint: cell viability (%)
Give just the numeric value; % need not be written.

Could you share which cell viability value was measured for O=S1(=O)N[C@H]2CCCN2c2ccccc21 ?
89.5

Try the compound CC(=O)c1cc2c(o1)C(=O)c1ccccc1C2=O
88.8

Likewise for CC(=O)OCC(=O)[C@@]1(O)CC[C@H]2[C@@H]3CCC4=CC(=O)CC[C@]4(C)[C@H]3C(=O)C[C@@]21C [cortisone-acetate] ?
101

What about Nc1ncnc2c1nc(Br)n2[C@@H]1O[C@@H]2COP(=O)(O)O[C@H]2[C@H]1O ?
102

Also C[C@H]1CC[C@H](n2c3cnccc3c3cnc(Nc4ccc5c(n4)CCN(C(=O)CO)C5)nc32)CC1 , if possible.
95.9

And CCc1oc2ccccc2c1C(=O)c1cc(Br)c(O)c(Br)c1 ?
105

For Cc1nc(-c2ccc(OCC(C)C)c(C#N)c2)sc1C(=O)O then?
101

Do the same for O[C@@](Cc1nc(CC2(C(F)(F)F)CC2)c[nH]1)(c1ccc(-n2cccn2)cc1)C(F)(F)F please
100

Lookup O=C(O)Cc1ccc(OCCNC[C@H](O)c2ccccc2)cc1
102

Try this compound too: COCCc1ccc(OCC(O)CNC(C)C)cc1 (stereo not drawn)
93.6

Quick one: O=C(Nc1nc2ccc(NC(=O)C34CC5CC(CC(C5)C3)C4)cc2s1)c1ccccc1
93.9

Entry COC[C@@H](NC(C)=O)C(=O)NCc1ccccc1 [Lacosamide] please
90.6

Now the compound Cn1c(COc2ccc(CC3SC(=O)NC3=O)cc2)nc2ccccc2c1=O (stereo not drawn)
93.4

====

test system: Calu-3; experiment: cell viability relative to DMSO; higher = less toxic; conditions: 72 h; 10000 nM
Measured Endpoint: cell viability (%)
Write it as a number; the unit % goes unstated.

If you can, please state the reported cell viability value of O=C(Nc1cc(-c2ccccc2)nn1-c1ccccc1)c1ccc([N+](=O)[O-])cc1 .
111

Quick one: c1ccc2c(-c3cnn4cc(-c5ccc(N6CCNCC6)cc5)cnc34)ccnc2c1
0.4

One more compound: O=C(c1c(O)nc2cc(Cl)ccc2c1O)C1CC1
96.5

====

system: Vero E6; test: cell viability relative to DMSO; higher = less toxic; conditions: 72 h; 100 nM
Exercise: for every item that follows, state its recorded cell viability.
Reply with just the number (in %).

# cell viability lookup, item CC(C)NCC(O)COc1ccc(COCCOC(C)C)cc1 (configuration not stated)
93.3

Further, for CCOc1ccc(Cc2cc([C@@H]3O[C@H](SC)[C@@H](O)[C@H](O)[C@H]3O)ccc2Cl)cc1 ?
95.4

Record: CCNC(=O)N1CCN(CCCC(c2ccc(F)cc2)c2ccc(F)cc2)CC1 [amperozide]
100

Now give it for Cc1cc(N2CCOCC2)cc2[nH]c(-c3c(NC[C@@H](O)c4cccc(Cl)c4)cc[nH]c3=O)nc12 too.
90.6

And for Cc1c(C(=O)NN2CCOCC2)nn(-c2ccc(Cl)cc2Cl)c1-c1ccc(I)cc1 ?
98.4

One more compound: CN(c1ncccc1CNc1nc(Nc2ccc3c(c2)CC(=O)N3)ncc1C(F)(F)F)S(C)(=O)=O
87.8

Quick one: O=c1[nH]c(CCl)nc2sc3c(c12)CCCC3
95.8
